Data credit: patent US10947213B1

test_target: TLR7/NFKb HEK cells (Homo sapiens)
Sequence (Q9NYK1 27-1049): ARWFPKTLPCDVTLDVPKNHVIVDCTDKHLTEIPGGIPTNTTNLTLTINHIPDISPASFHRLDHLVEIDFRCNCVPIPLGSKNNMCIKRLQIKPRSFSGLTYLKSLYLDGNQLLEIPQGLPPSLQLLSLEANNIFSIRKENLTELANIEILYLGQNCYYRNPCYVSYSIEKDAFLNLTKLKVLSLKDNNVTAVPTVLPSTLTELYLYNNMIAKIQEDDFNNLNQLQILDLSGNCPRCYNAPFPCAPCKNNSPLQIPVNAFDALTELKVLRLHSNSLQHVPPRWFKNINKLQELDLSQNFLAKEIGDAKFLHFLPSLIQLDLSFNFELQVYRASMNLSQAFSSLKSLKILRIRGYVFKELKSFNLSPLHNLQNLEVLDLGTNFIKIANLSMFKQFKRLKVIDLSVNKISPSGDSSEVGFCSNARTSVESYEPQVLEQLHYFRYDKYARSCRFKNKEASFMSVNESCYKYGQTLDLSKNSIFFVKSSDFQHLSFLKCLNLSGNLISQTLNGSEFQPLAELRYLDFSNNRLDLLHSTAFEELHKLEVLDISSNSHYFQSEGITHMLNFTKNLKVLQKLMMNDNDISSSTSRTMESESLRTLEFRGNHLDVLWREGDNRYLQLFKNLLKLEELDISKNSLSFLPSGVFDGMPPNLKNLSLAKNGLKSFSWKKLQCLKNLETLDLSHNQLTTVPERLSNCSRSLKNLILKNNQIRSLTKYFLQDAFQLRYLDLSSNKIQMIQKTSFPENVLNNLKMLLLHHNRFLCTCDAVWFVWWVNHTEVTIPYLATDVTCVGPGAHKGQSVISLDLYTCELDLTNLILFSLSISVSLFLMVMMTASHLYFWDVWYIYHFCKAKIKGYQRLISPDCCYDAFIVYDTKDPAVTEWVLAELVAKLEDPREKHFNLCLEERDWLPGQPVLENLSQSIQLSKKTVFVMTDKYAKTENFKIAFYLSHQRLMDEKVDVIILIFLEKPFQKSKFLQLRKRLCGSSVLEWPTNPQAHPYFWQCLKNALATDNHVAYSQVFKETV
test_method_notes: HEK Cell Assay (TLR7/NFKb reporter, Steady-Glo luciferase readout)
condition_description: 30 min compound preincubation, then R*48 agonist for 5 hours, read-out: Potency
pIC50: −log10 of the molar value.
I'd appreciate it if you could supply pIC50 values for the items below.

IN: Tell me measured pIC50 for COc1ccc(N2C[C@@H](C)C[C@@H](NC(=O)[C@@H](O)C(C)C)C2)c2cccnc12 please.
OUT: > 6.00

IN: Tell me measured pIC50 for C[C@H]1C[C@@H](NC(=O)CN2CC(N)C2)CN(c2ccc(C(F)F)c3nccnc23)C1 please.
OUT: 5.00 to 6.00

IN: Tell me measured pIC50 for C[C@H]1C[C@@H](NC(=O)CC2CN(C)C2)CN(c2ccc(C(F)F)c3ncccc23)C1 please.
OUT: > 6.00

IN: Tell me measured pIC50 for CC(C)N1CCC(CC(=O)N[C@@H]2C[C@H](C(F)(F)F)CN(c3ccc(C#N)c4ncccc34)C2)CC1 please.
OUT: > 6.00

IN: Tell me measured pIC50 for CN1CCC(CNC(=O)C2CN(c3ccc(C#N)c4ncccc34)CC(F)(F)C2)CC1 (single isomer, unassigned) [Compound 545] please.
OUT: 5.00 to 6.00

IN: Tell me measured pIC50 for CC(C)(C)NCC(=O)NCC1CCN(c2ccc(C#N)c3ncccc23)CC1 please.
OUT: > 6.00

IN: Tell me measured pIC50 for C[C@H]1C[C@@H](NC(=O)C2(O)CC2)CN(c2ccc(C#N)c3nccnc23)C1 please.
OUT: > 6.00

IN: Tell me measured pIC50 for C[C@H]1C[C@@H](N)CN(c2ccc(F)c3ncccc23)C1 please.
OUT: > 6.00
